Biological target: human OX2R (Homo sapiens, UniProt O43614)
Construct: expressed in transfected cells; host or cells: Chinese hamster ovary (CHO) cells, kept under G418 selection
Assay: IPOne (IP-One) orexin receptor agonist assay in CHO cells expressing human OX2R
Assay type: cell-based
Conditions: human OX2R; percentage of sample raw value/mean max effect (reference compound at 1 uM with 100% activity)
From the text: The utility of the compounds in accordance with the present invention as orexin receptor OX1R and/or OX2R agonists may be readily determined without undue experimentation by methodology well known in the art. […] The utility of the compounds in accordance with the present invention as orexin receptor OX1R and/or OX2R agonists may be determined utilizing this assay. […]
Attribute: % max agonist effect (Emax)
Write down the numeric answer in % and omit the unit.

CS(=O)(=O)N[C@H]1CCN(c2cc(O)ncc2F)[C@H]1CO[C@H]1CC[C@@H](c2ccccc2)CC1: 100.8
COc1ccc(N2CC[C@H](NS(C)(=O)=O)[C@@H]2CO[C@H]2CC[C@@H](c3ccccc3)CC2)cn1: 100.6
CS(=O)(=O)N[C@H]1CCN(c2ncc(Cl)c(O)c2F)[C@H]1CO[C@H]1CC[C@@H](c2ccccc2)CC1: 102.4
Cn1cc(N2CC[C@H](NS(C)(=O)=O)[C@@H]2CO[C@H]2CC[C@@H](c3ccccc3)CC2)cn1 (relative stereo) [Example 2]: 89.7
CS(=O)(=O)N[C@H]1CCN(c2ncccc2OC(F)(F)F)[C@H]1CO[C@H]1CC[C@@H](c2ccccc2)CC1: 100.7

Value lookup for % max agonist effect (Emax); key = CS(=O)(=O)N[C@H]1CCN(c2cc(C#N)ccn2)[C@H]1CO[C@H]1CC[C@@H](c2ccccc2)CC1
99.8

Would you kindly share the measured % max agonist effect (Emax) for Cn1nnnc1N1CC[C@H](NS(C)(=O)=O)[C@@H]1CO[C@H]1CC[C@@H](c2ccccc2)CC1 ?
101.5

---

molecular target: UniProt O43614; assay: IPOne (IP-One) orexin receptor agonist assay in CHO cells expressing human OX2R; conditions: CHO cells expressing human OX2R; IP-One detection; 2 hours incubation; four parameter logistic fit; read-out: OX2R Potency, EC50
Measured pEC50, listed per entry.
The read-out pEC50 is expressed as -log10 of concentration in moles per litre.

Look over these answered cases.
CS(=O)(=O)N[C@H]1CCN(c2ncccc2F)[C@H]1CO[C@H]1CC[C@@H](c2ccccc2)CC1 [Example 131]: 6.13
Cn1cc(N2CC[C@H](NS(C)(=O)=O)[C@@H]2CO[C@H]2CC[C@@H](c3ccccc3)CC2)ccc1=O [Example 112]: 5.33
COc1ccc(N2CC[C@H](NS(C)(=O)=O)[C@@H]2CO[C@H]2CC[C@@H](c3ccccc3)CC2)cc1 (relative stereo) [Example 6]: 5.04

Here is another compound to look at.
Short answer please: pEC50, UniProt O43614, entry CS(=O)(=O)N[C@H]1CCN(c2cccc(=O)[nH]2)[C@H]1CO[C@H]1CC[C@@H](c2ccccc2)CC1 [Example 148]
6.79

---

Molecular target: human OX2R (Homo sapiens, UniProt O43614)
Sequence (O43614 1-444): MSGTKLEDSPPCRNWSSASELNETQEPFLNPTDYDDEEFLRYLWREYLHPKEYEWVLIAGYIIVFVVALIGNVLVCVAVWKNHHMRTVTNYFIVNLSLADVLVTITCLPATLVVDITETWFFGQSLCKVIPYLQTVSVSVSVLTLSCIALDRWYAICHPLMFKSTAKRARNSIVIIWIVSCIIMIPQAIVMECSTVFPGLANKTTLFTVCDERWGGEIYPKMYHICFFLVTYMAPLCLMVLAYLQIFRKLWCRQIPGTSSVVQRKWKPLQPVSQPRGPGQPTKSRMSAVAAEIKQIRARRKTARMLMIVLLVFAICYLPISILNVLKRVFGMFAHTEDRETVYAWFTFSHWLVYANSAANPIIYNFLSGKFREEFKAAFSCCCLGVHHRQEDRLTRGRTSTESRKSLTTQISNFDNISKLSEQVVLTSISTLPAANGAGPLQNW
Assay: IPOne (IP-One) orexin receptor agonist assay in CHO cells expressing human OX2R
Details: CHO cells expressing human OX2R; IP-One detection; 2 hours incubation; four parameter logistic fit; read-out: OX2R Potency, EC50
MEASUREMENT_KIND: EC50

# count of solved cases: 3
Cc1nnc(N2CC[C@H](NS(C)(=O)=O)[C@@H]2CO[C@H]2CC[C@@H](c3ccccc3)CC2)s1 (relative stereo): 242 nM
CS(=O)(=O)N[C@H]1CCN(c2ccc(C(F)(F)F)cn2)[C@H]1CO[C@H]1CC[C@@H](c2ccccc2)CC1: 4000 nM
CS(=O)(=O)N[C@H]1CCN(c2ccc(C(F)F)nc2)[C@H]1CO[C@H]1CC[C@@H](c2ccccc2)CC1: 50 nM

API: value(readout= EC50, system= human OX2R (Homo sapiens, UniProt O43614), query= COc1c(F)cnc(N2CC[C@H](NS(C)(=O)=O)[C@@H]2CO[C@H]2CC[C@@H](c3cccc(F)c3)CC2)c1F )
716 nM

Which EC50 is reported with human OX2R (Homo sapiens, UniProt O43614) for this entry: CS(=O)(=O)N[C@H]1CCN(c2cncc(-c3ccccc3)c2)[C@H]1CO[C@H]1CC[C@@H](c2ccccc2)CC1 (relative stereo) ?
> 10000 nM

# query: EC50 | item Cc1nnc(N2CC[C@H](NS(C)(=O)=O)[C@@H]2CO[C@H]2CC[C@@H](c3ccccc3)CC2)o1 | system: human OX2R (Homo sapiens, UniProt O43614)
670 nM

Give EC50 (human OX2R (Homo sapiens, UniProt O43614)) of the following compound: CS(=O)(=O)N[C@H]1CCN(c2ccncc2C(F)(F)F)[C@H]1CO[C@H]1CC[C@@H](c2ccccc2)CC1
1670 nM

Which EC50 is reported with human OX2R (Homo sapiens, UniProt O43614) for this entry: CS(=O)(=O)N[C@H]1CCN(c2cc(C#N)ccn2)[C@H]1CO[C@H]1CC[C@@H](c2ccccc2)CC1 ?
72.1 nM

What is its EC50 for human OX2R (Homo sapiens, UniProt O43614)? Entry: CS(=O)(=O)N[C@H]1CCN(c2ccc[n+]([O-])c2)[C@H]1CO[C@H]1CC[C@@H](c2ccccc2)CC1
20.7 nM

Please tell me: EC50 of Cn1ncnc1N1CC[C@H](NS(C)(=O)=O)[C@@H]1CO[C@H]1CC[C@@H](c2ccccc2)CC1 , system human OX2R (Homo sapiens, UniProt O43614)?
33.7 nM

Form field: EC50 recorded for CS(=O)(=O)N[C@H]1CCN(c2cnccc2O)[C@H]1CO[C@H]1CC[C@@H](c2ccccc2)CC1 with human OX2R (Homo sapiens, UniProt O43614) (enter value)
38.3 nM

Notebook: pull reported EC50 for human OX2R (Homo sapiens, UniProt O43614), entry CS(=O)(=O)N[C@H]1CCN(c2cnc3ccoc3c2)[C@H]1CO[C@H]1CC[C@@H](c2ccccc2)CC1
803 nM

Test system human OX2R (Homo sapiens, UniProt O43614); read-out EC50; what value for CS(=O)(=O)N[C@H]1CCN(c2cnc(C3CC3)cn2)[C@H]1CO[C@H]1CC[C@@H](c2ccccc2)CC1 ?
178 nM

Which measured EC50 belongs to CS(=O)(=O)N[C@H]1CCN(c2ccc(CO)nc2)[C@H]1CO[C@H]1CC[C@@H](c2ccccc2)CC1 , tested on human OX2R (Homo sapiens, UniProt O43614)?
23.8 nM

Short answer please: EC50, human OX2R (Homo sapiens, UniProt O43614), entry Cn1cc(N2CC[C@H](NS(C)(=O)=O)[C@@H]2CO[C@H]2CC[C@@H](c3ccccc3)CC2)cn1 (relative stereo) [Example 2]
896 nM
